These entries and their values trace back to patent US20200369772A1.

STUDY_TARGET: T1, human PD-L2 (full-length, on cells) (human, UniProt Q9BQ51 20-273)
T1 construct: whole, on cells; CHO-K1 cells stably expressing full-length human PD-L2; also endogenous on NCI-H226 and transfected in Jurkat cells; also called hPD-L2; CHO-K1/hPD-L2
T1 sequence (looked up): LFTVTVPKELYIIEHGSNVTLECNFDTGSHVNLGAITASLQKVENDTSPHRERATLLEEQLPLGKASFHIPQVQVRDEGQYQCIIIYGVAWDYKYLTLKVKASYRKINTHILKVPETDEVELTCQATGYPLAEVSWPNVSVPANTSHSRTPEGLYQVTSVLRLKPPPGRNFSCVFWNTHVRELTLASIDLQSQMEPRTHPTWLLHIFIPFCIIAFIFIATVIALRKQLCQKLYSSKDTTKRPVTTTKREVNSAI
METHOD_SUMMARY: FACS binding on cells expressing human PD-L2 (per the examples)

BINDER	binding result
19B3-B3 M23K.M63L.HC (antibody, V domains shown, Optimized variant of 19B3-B3) VH: QVQLVQSGAEVKKPGASVKVSCKASGYTFTNYAIHWVRQAPGQRLEWMGWINTGLGKPKYSQLFQDRVTITRDTSASTASMELSGLRSDDTAVYYCARVGWELYFDYWGQGTLVTVSS VL: DIQMTQSPSTLSASVGDRVTITCRASQSISSLLAWYQQKPGKAPKLLIYKASSLESGVPSRFSGSGSGTEFTLTISSLQPDDFATYFCQQYNSYWTFGQGTKVEIK	binds
10D1-G1 (antibody, V domains shown, Both formats under this entry) VH: QVQLQESGPGLVKPSGTLSLTCAVSGGSISSSYWWSWVRQPPGKGLEWIGEIFHIGSTNYNPSLRSRVTISVVKSKNQFSLNLNSVTAADTAVYFCARVSGGYGYFSGMDVWGQGTTVTVSS VL: DIQMTQSPSSLSASVGDRVTITCRASQGIRNDLGWYQQKPGKAPKRLIYGASSLQSGVPSRFSGSGSGTEFTLTISSLQPEDFATYYCLQHNSYPRTFGQGTKVEIK	binds
10A9-D2 N31Q.LC (antibody, V domains shown, Optimized variant of 10A9-D2) VH: QVQLQESGPGLVKPSETLSLTCAVSGGSISSSYWWSWVRQPPGKGLEWVGEVFHVGVTNYNPSLKSRVTISVDKSKNQFSLKLTSVTAADTAVYYCARVTGTTGYYHGLDVWGQGTTVTVFS VL: DIQMTQSPSSLSASVGDRVTITCRASQGIRQDLGWYQQKPGKVPKRLIYAASSLQSGIPSRFSGSGSGTEFTLTISSLQPEDFATYYCLQHNNYPRTFGQGTKVEIK	binds
